Test system: Puccinia recondita—PUCCRT
Assay: Brown Rust of Wheat, in vivo whole plant, 24 Hour Protectant
Conditions: Puccinia; wheat plants sprayed at 100 ppm, inoculated after 24 hours; control vs untreated plants; read-out: PUCCRT in vivo 1 Day Protectant
readout-type: pest or weed control at 100 ppm

[[record]]
molecule = "CC(C)C(=O)O[C@H]1[C@H](C)OC(=O)[C@@H](NC(=O)c2cccnc2O)COC(=O)[C@@H]1Cc1ccccc1"
result = "25 to 74%"

[[record]]
molecule = "COc1ccnc(C(=O)Nc2cccc(CC3CC(C)(C)OC(C)(C)C3)c2)c1O"
result = "25 to 74%"

[[record]]
molecule = "CC1(C)CC(NC(=O)c2ccnnc2O)CC(C)(C)C1"
result = "25 to 74%"

[[record]]
molecule = "COc1ccnc(C(=O)NC2COC(=O)[C@H](Cc3ccccc3)[C@@H](OC(=O)C(C)C)[C@H](C)OC2=O)c1O (some centres unmarked)"
result = "25 to 74%"

[[record]]
molecule = "COc1ccnc(C(=O)Nc2cccc(Oc3ccc(C(F)(F)F)cc3)n2)c1O"
result = "75 to 100%"


====

System: Septoria tritici—SEPTTR
Test: Leaf Blotch of Wheat, in vivo whole plant, 24 Hour Protectant
Details: Zymoseptoria tritici; wheat (cultivar Yuma), sprayed at 100 ppm, inoculated after 24 hours; control of fungal infection vs untreated plants; read-out: SEPTTR in vivo 1 Day Protectant
Listed here: items and their measured pest or weed control at 100 ppm.
readout-type: pest or weed control at 100 ppm

[[record]]
compound = "COc1ccnc(C(=O)N[C@@H]2C[C@@H](O[Si](C)(C)C(C)(C)C)O[C@@H](C)[C@@H]2OCc2ccccc2)c1O"
target_desc = "Septoria tritici—SEPTTR"
result = "75 to 100%"

[[record]]
compound = "COc1ccnc(C(=O)N[C@@H]2CC3CC2[C@@H](C(=O)OC(C)C)C3)c1O (stereo partly shown)"
target_desc = "Septoria tritici—SEPTTR"
result = "25 to 74%"

[[record]]
compound = "COc1ccnc(C(=O)NC(COC(=O)CCc2ccccc2)C(=O)OC(C)COC(=O)C(C)C)c1O (stereo not shown)"
target_desc = "Septoria tritici—SEPTTR"
result = "75 to 100%"

[[record]]
compound = "COc1ccnc(C(=O)N[C@@H](Cc2ccc(OCc3ccccc3)cc2)C(=O)OCc2ccccc2)c1O"
target_desc = "Septoria tritici—SEPTTR"
result = "75 to 100%"

[[record]]
compound = "COc1ccnc(C(=O)N[C@H]2COC(=O)[C@H](Cc3ccccc3)[C@@H](OC(=O)CC(C)C)[C@H](C)OC2=O)c1O"
target_desc = "Septoria tritici—SEPTTR"
result = "25 to 74%"

[[record]]
compound = "COc1ccnc(C(=O)NC2C(=O)c3ccc(-c4ccco4)cc3OC2C)c1O (stereo not shown)"
target_desc = "Septoria tritici—SEPTTR"
result = "75 to 100%"

[[record]]
compound = "COc1ccnc(C(=O)NC2C3CC4C(C3Cl)C42)c1O (stereo not shown)"
target_desc = "Septoria tritici—SEPTTR"
result = "75 to 100%"

